# test protocol: GFP drop in mixed WT/humanized-ribosome E. coli culture – GFP/RFP fluorescence, OD600, single point, bacterial rRNA inhibitor project, primary screen (AID 720706)
# experimental context: E. coli WT GFP vs humanized-ribosome RFP mutants, 24 h; measured here: OD600 growth, DMSO median 0, no signal -100
The campaign covered roughly 350,000 compounds. About 5,500 (1.6%) were called active. Only a selection was taken, and actives are over-represented in it overall.
Provide the recorded OD600 change for the entries that follow.

Reference set, count: 4
# compound structure string, OD600 change
measured = [
    ("O=C(Nc1ccc(C(F)(F)F)cc1)c1cccc(-n2cnnn2)c1", "-17.2%"),
    ("O=C(Nc1cccc(-n2cnnn2)c1)c1cccnc1", "2.52%"),
    ("Cc1ccc(S(=O)(=O)N(C)C[C@@H]2Oc3ccc(NS(=O)(=O)c4cn(C)cn4)cc3C(=O)N([C@@H](C)CO)C[C@H]2C)cc1", "-1.14%"),
    ("Cc1noc(C)c1S(=O)(=O)Nc1ccc2c(c1)CC(=O)N([C@H](C)CO)C[C@@H](C)[C@@H](CN(C)Cc1ccncc1)O2", "6.97%"),
]

For each of the items listed, what is its OD600 change?
1. O=S(=O)(NCCc1csc(-c2ccccc2)n1)c1cccnc1
2. COCCn1c(=O)[nH]c(=O)c2cc(C(=O)c3cc(OC)ccc3O)cnc21
3. C[C@@H]1CN([C@@H](C)CO)C(=O)c2cc(NS(=O)(=O)c3cn(C)cn3)ccc2O[C@@H]1CN(C)Cc1ccc(C(=O)Nc2ccccc2N)cc1
4. O=C(NCCc1csc(-c2ccccc2)n1)c1ccccc1F
5. O=C(O)CSCC(=O)Nc1ccc(C(F)(F)F)cc1

1: -3.96%; 2: -0.37%; 3: 6.33%; 4: -9.12%; 5: 10.9%
